- test system: hGYS1 enzyme (recombinant hGYS1/GN1 protein) (Homo sapiens (Human), UniProt P13807)
- Sequence (P13807 whole entry): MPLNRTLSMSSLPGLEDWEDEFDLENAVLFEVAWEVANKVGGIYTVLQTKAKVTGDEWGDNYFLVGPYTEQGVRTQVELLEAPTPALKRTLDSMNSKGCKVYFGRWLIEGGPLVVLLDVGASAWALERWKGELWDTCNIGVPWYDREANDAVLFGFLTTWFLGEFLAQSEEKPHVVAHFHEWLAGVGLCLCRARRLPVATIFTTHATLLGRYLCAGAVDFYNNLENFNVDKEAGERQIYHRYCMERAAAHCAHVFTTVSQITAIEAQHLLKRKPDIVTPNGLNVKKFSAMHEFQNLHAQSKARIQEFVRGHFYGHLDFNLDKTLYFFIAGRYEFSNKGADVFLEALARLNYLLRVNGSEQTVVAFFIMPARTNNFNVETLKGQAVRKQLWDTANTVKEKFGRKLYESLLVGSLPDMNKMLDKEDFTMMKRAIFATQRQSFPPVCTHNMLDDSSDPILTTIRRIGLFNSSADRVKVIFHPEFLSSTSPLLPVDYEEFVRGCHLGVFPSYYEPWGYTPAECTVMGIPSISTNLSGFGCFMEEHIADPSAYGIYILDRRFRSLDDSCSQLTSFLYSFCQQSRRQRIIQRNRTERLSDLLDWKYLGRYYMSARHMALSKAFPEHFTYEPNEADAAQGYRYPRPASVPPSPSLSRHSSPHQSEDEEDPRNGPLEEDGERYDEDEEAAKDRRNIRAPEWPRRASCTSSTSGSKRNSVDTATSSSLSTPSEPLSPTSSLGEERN
- Sequence (P46976 whole entry partner): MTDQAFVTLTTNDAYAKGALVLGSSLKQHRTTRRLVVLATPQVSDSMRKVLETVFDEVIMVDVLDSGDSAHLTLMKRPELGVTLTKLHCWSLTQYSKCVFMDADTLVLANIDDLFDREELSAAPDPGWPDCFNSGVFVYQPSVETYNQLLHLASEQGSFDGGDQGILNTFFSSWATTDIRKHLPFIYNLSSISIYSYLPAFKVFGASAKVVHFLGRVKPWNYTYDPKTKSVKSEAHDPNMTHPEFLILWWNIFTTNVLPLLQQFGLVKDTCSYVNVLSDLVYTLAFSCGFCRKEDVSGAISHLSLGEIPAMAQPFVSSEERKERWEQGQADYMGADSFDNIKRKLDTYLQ
- assay name: GYS1 coupled enzyme assay (PK/LDH)
- conditions used: hGYS1/GN1 50 nM, UDP-Glucose 0.8 mM, G6P 1 mM; geometric mean of at least 2 runs
pIC50: −log10 of the molar value.
experimental readout: pIC50

                                    compound                               test_system  value
 0  Cc1cn(CC(=O)N2C[C@H](F)C[C@H]2C(=O)N[C@@H](c2ccccc2)c2ccc(C(C)C)c(F)n2)c(=O)[nH]c1=O (relative stereo) [Compound 778]  hGYS1 enzyme (recombinant hGYS1/GN1 protein) (Homo sapiens (Human), UniProt P13807)   6.42
 1  O=C(N[C@@H](c1ccccc1)c1ccc(C2CC2)c(F)c1)[C@@H]1C[C@@H](F)CN1C(=O)CN1CCOC1=O  hGYS1 enzyme (recombinant hGYS1/GN1 protein) (Homo sapiens (Human), UniProt P13807)   6.54
 2  CC(C)c1ccc([C@@H](NC(=O)[C@@H]2C[C@@H](F)CN2C(=O)CN2CCCC2=O)c2ccccc2)cc1  hGYS1 enzyme (recombinant hGYS1/GN1 protein) (Homo sapiens (Human), UniProt P13807)   7.12
 3  CC1(c2ccc([C@@H](NC(=O)[C@@H]3C[C@@H](F)CN3C(=O)Cn3cnc4ccccc43)c3ccccc3)nc2F)CC1  hGYS1 enzyme (recombinant hGYS1/GN1 protein) (Homo sapiens (Human), UniProt P13807)   7.60
 4  Cc1ccc2cc(CC(=O)N3C[C@H](F)C[C@H]3C(=O)N[C@@H](c3ccccc3)c3ccc(C4CC4)c(F)c3)ccc2n1  hGYS1 enzyme (recombinant hGYS1/GN1 protein) (Homo sapiens (Human), UniProt P13807)   7.10
 5  CC(C)c1ccc([C@@H](NC(=O)[C@@H]2C[C@@H](F)CN2C(=O)CN2CC(=O)N(C)CC2=O)c2ccccc2)cc1F  hGYS1 enzyme (recombinant hGYS1/GN1 protein) (Homo sapiens (Human), UniProt P13807)   7.74
 6  CC(C)c1ccc([C@@H](NC(=O)[C@@H]2CCCN2C(=O)CO)c2ccccc2)cc1  hGYS1 enzyme (recombinant hGYS1/GN1 protein) (Homo sapiens (Human), UniProt P13807)   6.33
 7  CC(=O)N1C[C@]2(C(=O)N3C[C@H](F)C[C@H]3C(=O)N[C@@H](c3ccccc3)c3ccc(C(C)C)cc3)CC1CO2  hGYS1 enzyme (recombinant hGYS1/GN1 protein) (Homo sapiens (Human), UniProt P13807)   6.26
 8  O=C(N[C@@H](c1ccccc1)c1ccc(C2CC2)c(F)c1)[C@@H]1C[C@@H](F)CN1C(=O)CCc1n[nH]c(=O)[nH]1  hGYS1 enzyme (recombinant hGYS1/GN1 protein) (Homo sapiens (Human), UniProt P13807)   6.99
 9  CC(C)c1c(F)cc([C@@H](NC(=O)[C@@H]2C[C@@H](F)CN2C(=O)Cn2cnnn2)c2ccccc2)cc1F  hGYS1 enzyme (recombinant hGYS1/GN1 protein) (Homo sapiens (Human), UniProt P13807)   7.40
10  CC(C)c1ccc([C@@H](NC(=O)[C@@H]2CCCN2C(=O)CNC(=O)OC(C)(C)C)c2ccccc2)cc1  hGYS1 enzyme (recombinant hGYS1/GN1 protein) (Homo sapiens (Human), UniProt P13807)   6.97
11  CC(=O)N1C[C@H]2CC[C@@H](C1)[C@@H]2C(=O)N1C[C@H](F)C[C@H]1C(=O)N[C@@H](c1ccccc1)c1ccc(C(C)C)cc1  hGYS1 enzyme (recombinant hGYS1/GN1 protein) (Homo sapiens (Human), UniProt P13807)   6.07
12  CC1(c2ccc([C@@H](NC(=O)[C@@H]3C[C@@H](F)CN3C(=O)Cc3cnn[nH]3)c3ccccc3)cc2F)CCC1  hGYS1 enzyme (recombinant hGYS1/GN1 protein) (Homo sapiens (Human), UniProt P13807)   7.52
13  O=C(N[C@@H](c1ccccc1)c1ccc(C2CC2)c(F)c1)[C@@H]1C[C@@H](F)CN1C(=O)Cc1cccc2ncccc12  hGYS1 enzyme (recombinant hGYS1/GN1 protein) (Homo sapiens (Human), UniProt P13807)   7.55
14  CC(C)c1ccc([C@@H](NC(=O)[C@@H]2C[C@@H](F)CN2C(=O)C(C)(C)c2ncn[nH]2)c2ccccc2)cc1  hGYS1 enzyme (recombinant hGYS1/GN1 protein) (Homo sapiens (Human), UniProt P13807)   6.60
15  Cc1cn(CC(=O)N2C[C@H](F)C[C@H]2C(=O)N[C@@H](c2ccccc2)c2ccc(C(C)C)c(F)n2)c(=O)n(C)c1=O (relative stereo) [Compound 777]  hGYS1 enzyme (recombinant hGYS1/GN1 protein) (Homo sapiens (Human), UniProt P13807)   7.38
16  CC(C)c1ccc([C@@H](NC(=O)[C@@H]2CC[C@H](C)N2C(=O)Cc2cnn[nH]2)c2ccccc2)nc1F  hGYS1 enzyme (recombinant hGYS1/GN1 protein) (Homo sapiens (Human), UniProt P13807)   7.60
17  CC(C)c1ccc([C@@H](NC(=O)[C@@H]2C[C@@H](F)CN2C(=O)C(C)n2ccnc2)c2ccccc2)cc1F (single isomer, unassigned) [Compound 771]  hGYS1 enzyme (recombinant hGYS1/GN1 protein) (Homo sapiens (Human), UniProt P13807)   7.48
18  CC(C)c1ccc([C@@H](NC(=O)[C@@H]2C[C@@H](F)CN2C(=O)Cc2noc(=O)n2C)c2ccccc2)nc1  hGYS1 enzyme (recombinant hGYS1/GN1 protein) (Homo sapiens (Human), UniProt P13807)   6.33
19  CC(C)c1ccc([C@@H](NC(=O)[C@@H]2C[C@@H](F)CN2C(=O)CCc2cccnc2)c2ccccc2)cc1  hGYS1 enzyme (recombinant hGYS1/GN1 protein) (Homo sapiens (Human), UniProt P13807)   7.09
20  COc1cccnc1CCC(=O)N1C[C@H](F)C[C@H]1C(=O)N[C@@H](c1ccccc1)c1ccc(C(C)C)cc1  hGYS1 enzyme (recombinant hGYS1/GN1 protein) (Homo sapiens (Human), UniProt P13807)   7.36
21  CC(C)c1ccc([C@@H](NC(=O)[C@@H]2C[C@@H](F)CN2C(=O)CN(C)C(=O)N(C)C)c2ccccc2)cc1F  hGYS1 enzyme (recombinant hGYS1/GN1 protein) (Homo sapiens (Human), UniProt P13807)   7.05
22  CC1(c2ccc([C@@H](NC(=O)[C@@H]3C[C@@H](F)CN3C(=O)CC3C(=O)Nc4ccccc43)c3ccccc3)cc2F)CC1 (stereo partly shown)  hGYS1 enzyme (recombinant hGYS1/GN1 protein) (Homo sapiens (Human), UniProt P13807)   6.57
23  CC(C)c1ccc([C@@H](NC(=O)[C@@H]2C[C@@H](F)CN2C(=O)Cc2cnnn2C)c2ccccc2)cc1 (stereo in doubt)  hGYS1 enzyme (recombinant hGYS1/GN1 protein) (Homo sapiens (Human), UniProt P13807)   7.11
24  CC(C)c1ccc([C@@H](NC(=O)[C@@H]2C[C@@H](F)CN2C(=O)Cn2cnc3ccccc32)c2ccccc2)nc1F  hGYS1 enzyme (recombinant hGYS1/GN1 protein) (Homo sapiens (Human), UniProt P13807)   8.40

----------
- test system: hGYS1 enzyme (recombinant hGYS1/GN1 protein) (Homo sapiens (Human))
- assay name: GYS1 coupled enzyme assay (PK/LDH)
- conditions used: hGYS1/GN1 50 nM, UDP-Glucose 0.8 mM, G6P 1 mM; geometric mean of at least 2 runs
experimental readout: log10(IC50) (log10 of the value in nM)

                                   molecule  value
0  CCc1nc(C(=O)N2C[C@H](F)C[C@H]2C(=O)N[C@@H](c2ccccc2)c2ccc(C(C)C)cc2)co1 [Compound 42]   2.69
1  CC(C)c1ccc([C@@H](NC(=O)[C@@H]2C[C@@H](F)CN2C(=O)C(C)c2cnn[nH]2)c2ccccc2)cc1F (single isomer, unassigned) [Compound 769]   1.34
2  O=C(N[C@@H](c1ccccc1)c1ccc(C2CC(F)(F)C2)cn1)[C@@H]1C[C@@H](F)CN1C(=O)Cc1cnn[nH]1 [Compound 534]   1.76
3  Cc1cc(CC(=O)N2C[C@H](F)C[C@H]2C(=O)N[C@@H](c2ccccc2)c2ccc(C(C)C)c(F)n2)c[nH]c1=O [Compound 784]   0.70
4  CCn1cc(C)cc(CC(=O)N2C[C@H](F)C[C@H]2C(=O)N[C@@H](c2ccccc2)c2ccc(C(C)C)c(F)n2)c1=O [Compound 799]   0.60
5  CC(C)CNC(=O)C(=O)N1C[C@H](F)C[C@H]1C(=O)N[C@@H](c1ccccc1)c1ccc(C(C)C)cc1 [Compound 111]   3.03
